These data points were gathered from ChEMBL document CHEMBL5214914.

Measurement Protocol: Drug metabolism in Sprague-Dawley rat plasma at 10 uM measured after 8 hrs
Format: ADME, cell-free, Sprague-Dawely
Settings: read-out: Drug metabolism
Property Label: metabolised at 8 h, 10 µM (%)
One number for each entry, in %.

Prompt line: Suppose we examine the molecule C[C@@H](O)[C@H](Nc1ccn([C@@H]2O[C@H](CO)[C@@H](O)C2(F)F)c(=O)n1)C(=O)O ; what metabolised at 8 h, 10 µM value has been reported?
Response line: 20

###

Measurement Protocol: Half life in human
Type: ADME
Property Label: half-life (min)
Answers are plain numbers, in min.

Prompt line: Item Nc1ccn([C@@H]2O[C@H](CO)[C@@H](O)C2(F)F)c(=O)n1 has what recorded half-life?
Response line: 9
